Just for reference, patent US9969715B2 is where these values come from.

Measured MDA tox: 50% tox. at (μM) av, listed per entry.
Tested on: MDA-MB231-luc-D3H2LN cells
assayProcedure: Toxicity assay under normal cell culture conditions (MTS), MDA cells
Assay type: cell-based, human
particulars: MDA-MB231-luc-D3H2LN cells, MEM+10% FBS, 72 h incubation, MTS

Please review the entries below; each comes with its answer.
itemSmiles | recordedValue
CCN(CC)CCCNC(=O)c1cncc(Nc2cccc(C(=O)Nc3ccncc3)c2)c1 | >>100 μM
O=C(Nc1ccncc1)c1ccc(Nc2cccc(S(=O)(=O)NCCCN3CCOCC3)c2)cc1 | >>44 μM
CN1CCN(CCCNC(=O)c2ccnc(Nc3cccc(C(=O)N(C)c4ccncc4)c3)c2)CC1 | 19 µM

Now look at this entry.
### Prompt Find the measured MDA tox: 50% tox. at (μM) av: item CN(C(=O)c1cccc(Nc2cccc(C(=O)NCCCN3CCOCC3)c2)c1)c1ccncc1 , target or system MDA-MB231-luc-D3H2LN cells.
### Response >100 µM
